target_of_assay: HIV-1 reverse transcriptase (RNase H) (Human immunodeficiency virus type 1 group M subtype B, UniProt P04585)
method: ASH assay: RNase H mediated RNA cleavage (ECL format, BioVeris M384)
Type: biochemical
readout_label: IC50
Please append the unit to your numeric answer.

Enquiry: Quick one: IC50 of `O=c1cc(Cc2ccc(CCc3ccc(F)cc3F)cc2)c2cccnc2n1O` ?
Return: 120 nM

Enquiry: Quick one: IC50 of `O=c1c(-c2ccccn2)c(O)c2cccnc2n1O` ?
Return: 100 nM

Enquiry: Quick one: IC50 of `CCOC(=O)c1c(O)c2c(-c3ccccc3)ccnc2n(O)c1=O` ?
Return: 260 nM

Enquiry: Quick one: IC50 of `CNC(=O)c1c(O)c2cccnc2n(O)c1=O` ?
Return: 180 nM

Enquiry: Quick one: IC50 of `O=c1cc(NCc2cccc(N3CCOCC3)n2)c2cccnc2n1O` ?
Return: 180 nM

Enquiry: Quick one: IC50 of `NCc1ccc(-c2ccc3c(c2)CN(c2cc(=O)n(O)c4ncccc24)C3)cc1` ?
Return: 33 nM
